Answer each item with its documented TGI.
# Test system: EKVX NSCLC
# experiment: NCI tumour cell line growth inhibition, 48 h
Answers are plain numbers, in µM.

Reference set, count: 3
{"columns": ["molecule", "outputUnit", "TGI"],
 "data": [
  ["O=C(O)[C@@H]1CCCCN1Cc1cc2cc3c(cc2c2cc(OCc4ccccc4)ccc12)OCO3", "µM", 25.3],
  ["CCCCCCCCCCN(CCCCCCCCCC)C(=O)COc1c2cc(C(C)(C)C)cc1Cc1cc(C(C)(C)C)cc(c1OCC(=O)N(CCCCCCCCCC)CCCCCCCCCC)Cc1cc(C(C)(C)C)cc(c1OCC(=O)N(CCCCCCCCCC)CCCCCCCCCC)Cc1cc(C(C)(C)C)cc(c1OCC(=O)N(CCCCCCCCCC)CCCCCCCCCC)C2", "µM", 25.2],
  ["COC(=O)[C@H](Cc1c[nH]c2ccccc12)NC(=O)[C@@H](OC)[C@@H]1Cc2cc3cc(OC4CC(OC5CC(O)C(O)C(C)O5)C(O)C(C)O4)c(C)c(O)c3c(O)c2C(=O)[C@H]1OC1CC(OC2CC(OC3CC(C)(O)C(O)C(C)O3)C(O)C(C)O2)C(O)C(C)O1 (some centres undefined)", "µM", 3]
]}

Memo: O=c1c2cc(S(=O)(=O)O)ccc2nc(COc2ccc(Oc3ccc(Cl)cc3Cl)cc2)n1-c1ccc(Cl)cc1Oc1c(Cl)cccc1Cl , reported TGI: 40.4
